target: SNARE complex (VAMP, syntaxin and SNAP-25 bound to GST) (UniProt P60880); assay: competition ELISA: VAMP on plate, SNAP-25-GST + syntaxin, anti-GST detection; compound at 0.5 mM
Sequence (P60880 whole entry, one chain of several): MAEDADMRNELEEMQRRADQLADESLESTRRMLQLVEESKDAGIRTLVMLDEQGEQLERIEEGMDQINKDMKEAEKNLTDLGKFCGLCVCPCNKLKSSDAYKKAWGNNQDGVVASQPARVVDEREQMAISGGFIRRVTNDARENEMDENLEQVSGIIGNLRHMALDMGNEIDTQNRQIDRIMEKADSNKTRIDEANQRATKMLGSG
*: point of attachment. Palmitoyl = CCCCCCCCCCCCCCCC(=O)*
observation-type: % inhibition formation SNARE complex (%)

Study these solved cases before continuing.
Ac-EHLKQWM-OH [Ac-SEQ ID NO:1-OH]    29
Ac-NHLKNWM-NH2 [Ac-SEQ ID NO:31-NH2]    26
Ac-DHFLDWM-NH2 [Ac-SEQ ID NO:25-NH2]    40
Palmitoyl-QHLHNVM-NH2 [Palm-SEQ ID NO:3-NH2]    20

(P) Ac-EHFLQWM-NH2 [Ac-SEQ ID NO:30-NH2]
(Q) Palmitoyl-DHFQQRM-NH2 [Palm-SEQ ID NO:24-NH2]
stdin: Returns: the argument ( P or Q ) having the larger % inhibition formation SNARE complex. Write the label of whichever entry you select.
stdout: Q
(Q: 36%, P: 24%)

Every entry's value here was drawn from patent EP2649983A1.
